target: PDGFR-α (Homo sapiens, UniProt P16234); experiment: PDGFR-α in vitro kinase activity assay (HTRF kinEASE TK); assay type: biochemical; settings: compound 100 nM; read-out: PDGFRα inhibition rate, 100 nM
Sequence (P16234 24-1089): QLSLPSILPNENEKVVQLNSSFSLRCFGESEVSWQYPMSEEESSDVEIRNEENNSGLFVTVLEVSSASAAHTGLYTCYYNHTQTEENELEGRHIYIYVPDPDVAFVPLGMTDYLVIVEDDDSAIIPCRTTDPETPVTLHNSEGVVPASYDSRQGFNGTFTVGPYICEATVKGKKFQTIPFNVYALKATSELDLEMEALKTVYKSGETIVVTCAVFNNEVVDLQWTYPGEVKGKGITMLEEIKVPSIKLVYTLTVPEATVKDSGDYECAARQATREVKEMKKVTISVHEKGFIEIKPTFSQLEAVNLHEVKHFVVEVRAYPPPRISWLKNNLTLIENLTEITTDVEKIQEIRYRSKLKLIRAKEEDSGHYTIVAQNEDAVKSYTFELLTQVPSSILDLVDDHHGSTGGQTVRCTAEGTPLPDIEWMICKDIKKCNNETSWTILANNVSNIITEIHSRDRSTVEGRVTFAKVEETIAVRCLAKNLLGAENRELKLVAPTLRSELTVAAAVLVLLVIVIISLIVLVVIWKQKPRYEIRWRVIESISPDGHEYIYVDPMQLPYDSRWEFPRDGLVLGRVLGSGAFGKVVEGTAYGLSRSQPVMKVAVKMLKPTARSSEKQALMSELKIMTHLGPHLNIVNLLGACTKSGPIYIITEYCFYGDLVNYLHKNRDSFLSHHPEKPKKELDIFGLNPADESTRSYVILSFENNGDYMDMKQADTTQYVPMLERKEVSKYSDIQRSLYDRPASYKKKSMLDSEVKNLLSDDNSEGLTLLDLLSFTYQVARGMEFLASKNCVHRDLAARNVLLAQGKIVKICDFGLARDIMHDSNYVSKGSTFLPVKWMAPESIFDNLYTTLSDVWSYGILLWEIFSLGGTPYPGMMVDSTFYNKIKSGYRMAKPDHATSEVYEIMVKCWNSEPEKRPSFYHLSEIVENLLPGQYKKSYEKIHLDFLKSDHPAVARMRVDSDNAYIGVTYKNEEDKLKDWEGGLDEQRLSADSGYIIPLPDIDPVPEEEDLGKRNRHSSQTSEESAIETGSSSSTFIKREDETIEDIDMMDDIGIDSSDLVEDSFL
Assign inhibition at 0.1 µM to each entry below.
Please state the figure in %; there is no need to write the unit.

Qu. Bench note: what inhibition at 0.1 µM did Cc1cccc(NC(=O)c2cccc3c2CC[C@@H]3Nc2cncc(-c3cnn(C)c3)c2)c1 [Compound 13] show?
Ans. 99.1

Qu. What do you have for Cn1cc(-c2cncc(N[C@H]3CCc4c(C(=O)Nc5ccc(C(F)(F)F)nc5)cccc43)c2)cn1 [Compound 14ah] ?
Ans. 99.4

Qu. What do you have for Cc1cncc(NC(=O)c2cccc3c2CC[C@@H]3Oc2cncc(-c3cnn(C)c3)c2)c1 [Compound 19j] ?
Ans. 79.7

Qu. What do you have for CN(c1cncc(-c2cnn(C)c2)c1)[C@H]1CCc2c(C(=O)Nc3cccc(C4CC4)c3)cccc21 [Compound 22a] ?
Ans. 60.5

Qu. What do you have for Cn1cc(-c2cncc(O[C@H]3CCc4c(C(=O)Nc5cncc(Cl)c5)cccc43)c2)cn1 [Compound 19a] ?
Ans. 86.2

Qu. What do you have for Cn1cc(-c2cncc(N[C@H]3CCc4c(Nc5noc(C(C)(C)C)n5)cccc43)c2)cn1 [Compound 42o] ?
Ans. 57.8

Qu. What do you have for Cn1cc2ncc(O[C@H]3CCc4c(C(=O)Nc5cncc(Cl)c5)cccc43)cc2n1 [Compound 76ai] ?
Ans. 89.3

Qu. What do you have for CN(c1cnc2cn(C)nc2c1)[C@H]1CCc2c(C(=O)Nc3nn(C)c4ccccc34)cccc21 [Compound 80l] ?
Ans. 96.9

Qu. What do you have for Cn1cc(-c2cncc(N[C@H]3CCc4c(C(=O)Nc5nn(C)c6ccccc56)cccc43)n2)cn1 [Compound 27g] ?
Ans. 98.9

Qu. What do you have for Cn1cc(-c2cncc(N[C@H]3CCc4c(C(=O)Nc5cncc(Cl)c5)cccc43)c2)cn1 [Compound 14aa] ?
Ans. 98.7

Qu. What do you have for Cn1cc2ncc(O[C@H]3CCc4c(C(=O)Nc5nn(C)c6cccc(F)c56)cccc43)cc2n1 [Compound 76aw] ?
Ans. 102

Qu. What do you have for Cc1cccc(NC(=O)c2cccc3c2CC[C@@H]3Oc2cnc3cn(C)nc3c2)n1 [Compound 76bd] ?
Ans. 85.7

Qu. What do you have for Cc1cc(NC(=O)c2cccc3c2CC[C@@H]3Oc2cncc(-c3cnn(C)c3)c2)cc(C)n1 [Compound 19k] ?
Ans. 74.3

Qu. What do you have for Cn1cc(-c2cncc(N[C@H]3CCc4c(Nc5cc(C(C)(C)C)on5)cccc43)c2)cn1 [Compound 41] ?
Ans. 100

Qu. What do you have for Cn1cc2ncc(O[C@H]3CCc4c(C(=O)Nc5nn(C)c6ccccc56)cccc43)cc2n1 [Compound 76al] ?
Ans. 97.2

Qu. What do you have for CN1CCc2ccc(NC(=O)c3cccc4c3CC[C@@H]4Nc3cncc(-c4cnn(C)c4)c3)cc2C1 [Compound 14ap] ?
Ans. 98.8

Qu. What do you have for Cn1cc(-c2cnc(N)c(O[C@H]3CCc4c(C(=O)Nc5cccc(C6CC6)c5)cccc43)c2)cn1 [Compound 4] ?
Ans. 96.8

Qu. What do you have for CN1CCc2nc(NC(=O)c3cccc4c3CC[C@@H]4Nc3cncc(-c4cnn(C)c4)c3)sc2C1 [Compound 14ba] ?
Ans. 100

Qu. What do you have for CN(c1cnc2cn(C)nc2c1)[C@H]1CCc2c(C(=O)Nc3cncc(Cl)c3)cccc21 [Compound 80k] ?
Ans. 51.2

###

target: KIT (Homo sapiens, UniProt P10721); assay: KIT in vitro kinase activity assay (HTRF kinEASE TK); format: biochemical; settings: compound 100 nM; read-out: KIT inhibition rate, 100 nM
Sequence (P10721 26-976): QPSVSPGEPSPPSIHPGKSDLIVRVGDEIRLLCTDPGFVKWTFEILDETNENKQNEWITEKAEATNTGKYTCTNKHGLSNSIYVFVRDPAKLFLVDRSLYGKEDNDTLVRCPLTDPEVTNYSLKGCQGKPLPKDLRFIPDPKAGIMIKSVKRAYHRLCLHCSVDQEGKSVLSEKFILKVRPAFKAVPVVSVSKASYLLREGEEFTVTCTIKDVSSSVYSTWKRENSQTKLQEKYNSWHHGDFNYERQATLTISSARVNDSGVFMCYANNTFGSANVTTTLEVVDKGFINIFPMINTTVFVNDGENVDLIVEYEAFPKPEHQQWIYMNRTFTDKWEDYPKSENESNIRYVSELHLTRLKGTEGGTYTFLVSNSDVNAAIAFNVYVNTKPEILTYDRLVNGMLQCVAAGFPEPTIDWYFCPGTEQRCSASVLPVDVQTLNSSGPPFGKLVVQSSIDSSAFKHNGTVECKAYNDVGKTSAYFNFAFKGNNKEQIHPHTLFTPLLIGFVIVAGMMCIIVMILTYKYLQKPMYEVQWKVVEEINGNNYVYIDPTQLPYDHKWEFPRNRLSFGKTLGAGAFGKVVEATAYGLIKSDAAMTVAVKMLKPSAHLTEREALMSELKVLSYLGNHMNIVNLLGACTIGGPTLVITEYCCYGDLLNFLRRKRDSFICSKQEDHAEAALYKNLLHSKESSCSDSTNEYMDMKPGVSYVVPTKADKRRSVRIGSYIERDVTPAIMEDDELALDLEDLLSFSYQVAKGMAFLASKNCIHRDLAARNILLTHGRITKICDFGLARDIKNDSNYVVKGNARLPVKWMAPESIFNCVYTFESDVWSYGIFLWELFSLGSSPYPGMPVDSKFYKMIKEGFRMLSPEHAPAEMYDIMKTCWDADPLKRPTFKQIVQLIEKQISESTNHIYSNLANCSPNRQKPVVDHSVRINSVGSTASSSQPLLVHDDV
Please enter TRUE where inhibition at 0.1 µM is greater than or equal to 80%, and FALSE where it is lower.

Qu. Say whether CN(c1cncc(-c2cnn(C)c2)c1)[C@H]1CCc2c(C(=O)Nc3cncc(Cl)c3)cccc21 [Compound 21] shows inhibition at 0.1 µM of 80% or more.
Ans. FALSE

Qu. What do you have for Cn1cc2ncc(O[C@H]3CCc4c(C(=O)Nc5nn(C)c6cccc(F)c56)cccc43)cc2n1 [Compound 76aw] ?
Ans. TRUE

Qu. What do you have for Cn1ncc2ncc(O[C@H]3CCc4c(C(=O)Nc5cncc(Cl)c5)cccc43)cc21 [Compound 76ac] ?
Ans. FALSE

Qu. What do you have for Cn1cc2ncc(O[C@H]3CCc4c(C(=O)Nc5nn(C)c6ccccc56)cccc43)cc2n1 [Compound 76al] ?
Ans. TRUE

Qu. What do you have for CN(c1cncc(-c2cnn(C)c2)c1)[C@H]1CCc2c(C(=O)Nc3cccc(C4CC4)c3)cccc21 [Compound 22a] ?
Ans. FALSE

Qu. What do you have for Cc1cc(NC(=O)c2cccc3c2CC[C@@H]3Oc2cncc(-c3cnn(C)c3)c2)cc(C)n1 [Compound 19k] ?
Ans. FALSE

###

target: KIT (Homo sapiens, UniProt P10721); assay: KIT in vitro kinase activity assay (HTRF kinEASE TK); assay type: biochemical; conditions: compound 100 nM; read-out: KIT inhibition rate, 100 nM
Assign inhibition at 0.1 µM to each entry below.
Please state the figure in %; there is no need to write the unit.

Qu. Bench note: what inhibition at 0.1 µM did Cn1cc(-c2cncc(O[C@H]3CCc4c(C(=O)Nc5cccc(C6CC6)c5)cccc43)c2)cn1 [Compound 19b] show?
Ans. 80.2

Qu. What do you have for CN1CCc2ccc(NC(=O)c3cccc4c3CC[C@@H]4Nc3cncc(-c4cnn(C)c4)c3)cc2C1 [Compound 14ap] ?
Ans. 80.7

Qu. What do you have for Cn1cc2ncc(O[C@H]3CCc4c(C(=O)Nc5cncc(Cl)c5)cccc43)cc2n1 [Compound 76ai] ?
Ans. 79.1
